Each entry below lists one item and its recorded FC (fold change) value.
Assay summary: Example 4: dose response of FKBP constructs 160-255, Ec50, Ec90 and fold change (raw and normalized to mCherry)
Assay type: cell-based
Settings: fold change during initial analysis
Reported property: FC (fold change)

molecule="FKBP-232 (protein, Description of sequence: Construct Name: FKBP-232; Mutation(s): Q72R Q84E A117W V85R DRD G63M M54A) HCPIKSRKGDVLHAHYTGKLEDMTEFDSSLPRNQPFVFSLGTGERIKGWDQGLLGMCEGEKRKLVIPSELGYGERGWPPKIPGGATLVFEVELLKIER" assay_result=35.0
molecule="FKBP-248 (protein, Description of sequence: Construct Name: FKBP-248; Mutation(s): Q72R Q84E A117W DRD S68D) HCPIKSRKGDVLHMHYTGKLEDGTEFDDSLPRNQPFVFSLGTGEVIKGWDQGLLGMCEGEKRKLVIPSELGYGERGWPPKIPGGATLVFEVELLKIER" assay_result=50.1
